Entry source: ChEMBL document CHEMBL2311481

EXPERIMENT_DESCRIPTION: Selectivity index, ratio of IC50 for CHO cells to IC50 for chloroquine-susceptible Plasmodium falciparum D10
Format: toxicity, cell-based
TEST_CONTEXT: hamster, read-out: Ratio IC50
MEASURED_ENDPOINT: selectivity ratio
The reply should be a number, written without any unit.

[[record]]
compound = "Nc1cc(OCCOCCNc2ccnc3cc(Cl)ccc23)nc(N)n1"
numeric_result = 303

[[record]]
compound = "Nc1cc(OCCCNc2ccnc3cc(Cl)ccc23)nc(N)n1"
numeric_result = 494

[[record]]
compound = "CCC(COc1cc(N)nc(N)n1)Nc1ccnc2cc(Cl)ccc12 (stereo not given)"
numeric_result = 995

[[record]]
compound = "Nc1cc(Nc2ccc(Nc3ccnc4cc(Cl)ccc34)cc2)nc(N)n1"
numeric_result = 63


Just so you know, measured selectivity ratio for Nc1cc(NCCCCNc2ccnc3cc(Cl)ccc23)nc(N)n1 came out at 280

Just so you know, measured selectivity ratio for Nc1cc(N2CCN(c3ccnc4cc(Cl)ccc34)CC2)nc(N)n1 came out at 2070

Just so you know, measured selectivity ratio for Nc1cc(OCCNc2ccnc3cc(Cl)ccc23)nc(N)n1 came out at 764

Just so you know, measured selectivity ratio for CC(COc1cc(N)nc(N)n1)Nc1ccnc2cc(Cl)ccc12 (stereo not given) came out at 1030

Just so you know, measured selectivity ratio for Nc1cc(NCCCNc2ccnc3cc(Cl)ccc23)nc(N)n1 came out at 308

Just so you know, measured selectivity ratio for Nc1cc(NCCNc2ccnc3cc(Cl)ccc23)nc(N)n1 came out at 607

----------
Tested on: Plasmodium falciparum
EXPERIMENT_DESCRIPTION: microbe, parasite or virus in culture
TEST_CONTEXT: D10, 48 h
Labelling field: enter Criterion met if recorded IC50 is less than 200 nM. Enter Criterion not met if it equals or exceeds that cut-off.

Worked cases, answers included:
[[record]]
compound = "Nc1cc(NCCNc2ccnc3cc(Cl)ccc23)nc(N)n1"
group = "Criterion not met"

[[record]]
compound = "Nc1cc(OCCNc2ccnc3cc(Cl)ccc23)nc(N)n1"
group = "Criterion not met"


IN: Here's an entry: Nc1cc(N2CCN(c3ccnc4cc(Cl)ccc34)CC2)nc(N)n1 . Is its IC50 below 200 nM?
OUT: Criterion met

IN: Here's an entry: Nc1cc(OCCCNc2ccnc3cc(Cl)ccc23)nc(N)n1 . Is its IC50 below 200 nM?
OUT: Criterion not met

----------
Recorded solubility by entry
EXPERIMENT_DESCRIPTION: Solubility in octanol at pH 7.4
Assay type: physicochemical
A number alone suffices; assume µM.

[[record]]
compound = "Nc1cc(OCCNc2ccnc3cc(Cl)ccc23)nc(N)n1"
numeric_result = 1.84


Now look at this entry.
Just so you know, measured solubility for CCc1nc(N)nc(N)c1-c1ccc(Cl)cc1 [PYRIMETHAMINE] came out at 12.8

----------
EXPERIMENT_DESCRIPTION: Solubility in octanol at pH 5.5
Format: physicochemical
TEST_CONTEXT: buffer
Returns one of y or n; y when solubility is >= 0.2 µM.

[[record]]
molecule = "Nc1cc(NCCNc2ccnc3cc(Cl)ccc23)nc(N)n1"
group = "y"


IN: Confirm if solubility reported for the molecule Nc1cc(OCCOCCNc2ccnc3cc(Cl)ccc23)nc(N)n1 is 0.2 µM or above.
OUT: y

IN: Confirm if solubility reported for the molecule Nc1cc(NCCCNc2ccnc3cc(Cl)ccc23)nc(N)n1 is 0.2 µM or above.
OUT: n

IN: Confirm if solubility reported for the molecule CCc1nc(N)nc(N)c1-c1ccc(Cl)cc1 [PYRIMETHAMINE] is 0.2 µM or above.
OUT: y

IN: Confirm if solubility reported for the molecule CC(COc1cc(N)nc(N)n1)Nc1ccnc2cc(Cl)ccc12 (stereo not given) is 0.2 µM or above.
OUT: n

IN: Confirm if solubility reported for the molecule CCC(COc1cc(N)nc(N)n1)Nc1ccnc2cc(Cl)ccc12 (stereo not given) is 0.2 µM or above.
OUT: y

IN: Confirm if solubility reported for the molecule Nc1cc(OCCCNc2ccnc3cc(Cl)ccc23)nc(N)n1 is 0.2 µM or above.
OUT: y

IN: Confirm if solubility reported for the molecule Nc1cc(N2CCN(c3ccnc4cc(Cl)ccc34)CC2)nc(N)n1 is 0.2 µM or above.
OUT: n

IN: Confirm if solubility reported for the molecule Nc1cc(OCCNc2ccnc3cc(Cl)ccc23)nc(N)n1 is 0.2 µM or above.
OUT: n

IN: Confirm if solubility reported for the molecule Nc1cc(NCCCCNc2ccnc3cc(Cl)ccc23)nc(N)n1 is 0.2 µM or above.
OUT: n

----------
EXPERIMENT_DESCRIPTION: Partition coefficient, log D of the compound using n-octanol/PBS buffer system at pH 7.4 by HPLC method
Assay type: physicochemical
TEST_CONTEXT: n-octanol/PBS buffer, read-out: logD
Recorded logD by entry
The reply should be a number, written without any unit.

[[record]]
molecule = "Nc1cc(OCCNc2ccnc3cc(Cl)ccc23)nc(N)n1"
numeric_result = 0.9

[[record]]
molecule = "Nc1cc(OCCCNc2ccnc3cc(Cl)ccc23)nc(N)n1"
numeric_result = 1.01

[[record]]
molecule = "CCc1nc(N)nc(N)c1-c1ccc(Cl)cc1"
numeric_result = 1.93

[[record]]
molecule = "Nc1cc(OCCOCCNc2ccnc3cc(Cl)ccc23)nc(N)n1"
numeric_result = -0.28

[[record]]
molecule = "CC(COc1cc(N)nc(N)n1)Nc1ccnc2cc(Cl)ccc12 (centres undefined)"
numeric_result = 0.92


Just so you know, measured logD for Nc1cc(NCCNc2ccnc3cc(Cl)ccc23)nc(N)n1 came out at 0.78

Just so you know, measured logD for Nc1cc(NCCCCNc2ccnc3cc(Cl)ccc23)nc(N)n1 came out at 0.49

Just so you know, measured logD for Nc1cc(NCCCNc2ccnc3cc(Cl)ccc23)nc(N)n1 came out at 0.11

Just so you know, measured logD for CCC(COc1cc(N)nc(N)n1)Nc1ccnc2cc(Cl)ccc12 (centres undefined) came out at 2.47

----------
EXPERIMENT_DESCRIPTION: Partition coefficient, log D of the compound using n-octanol/PBS buffer system at pH 5.5 by HPLC method
Type: physicochemical
TEST_CONTEXT: n-octanol/PBS buffer, read-out: logD
Labelling field: enter criterion met if recorded logD is less than -0.7. Enter criterion not met if it equals or exceeds that cut-off.

[[record]]
molecule = "Nc1cc(OCCOCCNc2ccnc3cc(Cl)ccc23)nc(N)n1"
group = "criterion not met"

[[record]]
molecule = "Nc1cc(NCCNc2ccnc3cc(Cl)ccc23)nc(N)n1"
group = "criterion not met"

[[record]]
molecule = "CCc1nc(N)nc(N)c1-c1ccc(Cl)cc1"
group = "criterion not met"

[[record]]
molecule = "Nc1cc(OCCNc2ccnc3cc(Cl)ccc23)nc(N)n1"
group = "criterion not met"

[[record]]
molecule = "Nc1cc(OCCCNc2ccnc3cc(Cl)ccc23)nc(N)n1"
group = "criterion not met"

[[record]]
molecule = "CC(COc1cc(N)nc(N)n1)Nc1ccnc2cc(Cl)ccc12 (stereo not given)"
group = "criterion met"

[[record]]
molecule = "CCC(COc1cc(N)nc(N)n1)Nc1ccnc2cc(Cl)ccc12 (stereo not given)"
group = "criterion not met"

[[record]]
molecule = "Nc1cc(NCCCNc2ccnc3cc(Cl)ccc23)nc(N)n1"
group = "criterion met"


IN: Here's an entry: Nc1cc(NCCCCNc2ccnc3cc(Cl)ccc23)nc(N)n1 . Is its logD below -0.7?
OUT: criterion met

IN: Here's an entry: Nc1cc(N2CCN(c3ccnc4cc(Cl)ccc34)CC2)nc(N)n1 . Is its logD below -0.7?
OUT: criterion met

----------
Recorded solubility by entry
EXPERIMENT_DESCRIPTION: Aqueous solubility in pH 7.4 PBS buffer at 37 degC incubated for 24 hrs by HPLC method
Type: physicochemical
TEST_CONTEXT: pH 7.4, 24 h
A number alone suffices; assume µM.

Example molecules with recorded solubility:
[[record]]
molecule = "Nc1cc(NCCNc2ccnc3cc(Cl)ccc23)nc(N)n1"
measured_endpoint = "solubility"
numeric_result = 0.12

[[record]]
molecule = "Nc1cc(N2CCN(c3ccnc4cc(Cl)ccc34)CC2)nc(N)n1"
measured_endpoint = "solubility"
numeric_result = 0.01

[[record]]
molecule = "Nc1cc(OCCOCCNc2ccnc3cc(Cl)ccc23)nc(N)n1"
measured_endpoint = "solubility"
numeric_result = 0.84


Just so you know, measured solubility for Nc1cc(NCCCCNc2ccnc3cc(Cl)ccc23)nc(N)n1 came out at 0.94

Just so you know, measured solubility for CCc1nc(N)nc(N)c1-c1ccc(Cl)cc1 [PYRIMETHAMINE] came out at 0.15

Just so you know, measured solubility for Nc1cc(OCCNc2ccnc3cc(Cl)ccc23)nc(N)n1 came out at 0.23
